- TARGET ENTITY: T1, pVIc-TMR (UniProt P03274 240-250)
- T1 chain: GVQSLKRRRCF
- TEST METHOD NOTES: fluorescence polarization
pKd: −log10 of the molar value.

{"columns": ["BINDER", "pKd"],
 "data": [
  ["30 bp dsDNA (dsDNA) DNA 1: GACGACTAGGACGACGACGAGGATGACGAC DNA 2: GTCGTCATCCTCGTCGTCGTCCTAGTCGTC", 6.58]
]}
